Each recorded value in this set is attributed to patent US20250099420A1.

- test_target: GPR139 (Homo sapiens, UniProt Q6DWJ6)
- Sequence (Q6DWJ6 1-353): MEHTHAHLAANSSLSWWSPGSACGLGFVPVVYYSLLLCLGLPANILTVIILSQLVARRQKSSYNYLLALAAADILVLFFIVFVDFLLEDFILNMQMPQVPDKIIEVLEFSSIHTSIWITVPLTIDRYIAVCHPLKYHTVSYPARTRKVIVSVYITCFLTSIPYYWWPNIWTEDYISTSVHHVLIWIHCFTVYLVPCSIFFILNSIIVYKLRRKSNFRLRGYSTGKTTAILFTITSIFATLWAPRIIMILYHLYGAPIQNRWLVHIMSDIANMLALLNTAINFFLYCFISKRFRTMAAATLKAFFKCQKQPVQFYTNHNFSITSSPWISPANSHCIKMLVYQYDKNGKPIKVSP
- protocol_summary: GPR139 Agonist titration / agonist counterscreen assay (calcium detection, HEK-GPR139 cells)
- Type: cell-based
- Set-up: expressed in transfected cells; host or cells: HEK Aequorin cells, Maxcyte transient transfection
- condition_summary: GPR139 Agonist Activity; based on logP
result_type: Lipophilic Efficiency (logP)
Note: the reply should be a number with no unit written.

C=C(CC1N=CC2=C1c1ccccc1CC2)NCc1ccc(C)cc1 (stereo not shown)    4.02
COc1cc(-c2nnc(COc3ccc(Cl)cc3C)o2)cc(OC)c1OC    4.45
CC(C)C(CC(=O)Cc1cccc2ccccc12)C(=O)Nc1cccc(C#N)c1 (stereo not shown)    3.47
COc1ccc(CNC(=O)Nc2ccc(-c3cn[nH]c3)cc2)cc1.O=C(O)C(F)(F)F    4.10
Cc1ccccc1CS(=O)(=O)CCC(=O)NC(C)c1ccccc1 (stereo not shown)    4.42

query: Lipophilic Efficiency (logP) for COc1ccc(CCC(=O)Nc2ccc(OC)c(N3CCCC3=O)c2)cc1 ?
result: 4.82

query: Lipophilic Efficiency (logP) for Cc1ccc(C(=O)NNC(=O)CSc2nnc(Cn3cnc4ccccc43)o2)cc1 ?
result: 5.61
